Where do these numbers come from? They come from patent US9718781B2.

Biological target: TPα (Homo sapiens, UniProt P21731)
Construct: expressed in transfected cells
Sequence (P21731 whole entry): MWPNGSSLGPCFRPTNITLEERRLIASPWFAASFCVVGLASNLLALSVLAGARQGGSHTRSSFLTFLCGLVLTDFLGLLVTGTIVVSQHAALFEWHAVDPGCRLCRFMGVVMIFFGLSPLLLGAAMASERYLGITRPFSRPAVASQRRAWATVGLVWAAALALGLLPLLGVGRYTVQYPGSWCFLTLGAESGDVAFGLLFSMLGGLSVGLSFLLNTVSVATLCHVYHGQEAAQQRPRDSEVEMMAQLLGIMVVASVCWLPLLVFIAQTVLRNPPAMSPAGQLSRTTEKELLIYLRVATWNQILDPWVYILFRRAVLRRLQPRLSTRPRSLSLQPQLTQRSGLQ
Assay: U46619-induced [Ca2+]i mobilization in HEK.TPα cells
Format: cell-based
Details: IC50 TPα/IC50 TPβ
TPα:TPβ Selectivity Ratio for assorted compounds
Write no unit; give the number alone.

Sample answers from the record:
compound	obs.value
CC(C)(C)NC(=O)NS(=O)(=O)c1cc([N+](=O)[O-])ccc1Oc1cccc(I)c1 [XXXVIII]	2
CCCCCNC(=O)NS(=O)(=O)c1cc([N+](=O)[O-])ccc1Oc1cccc(-c2ccc(OC)cc2)c1 [XLIII]	1.4

Quick one: TPα:TPβ Selectivity Ratio of Cc1ccc(-c2cccc(Oc3ccc([N+](=O)[O-])cc3S(=O)(=O)NC(=O)NC(C)(C)C)c2)cc1 [XLI] ?
6.4

Give its TPα:TPβ Selectivity Ratio value. Item: COc1ccc(-c2cccc(Oc3ccc([N+](=O)[O-])cc3S(=O)(=O)NC(=O)NC(C)(C)C)c2)cc1 [TP20]
16.2
